# RUN_DESCRIPTION: Pharmacokinetics in plasma and lung in mouse after oral aspiration administration
# Type: in vivo
# SETUP_CONDITIONS: mouse, inhaled or intranasal, 0.01 mg/mouse, male CD1 mice, 0.2 mg/mL, two 25 μL increments, plasma, read-out: Plasma AUC(0-24)
Can you tell me AUC(0-t) for the items I'm about to list?

Req: For CCc1cc(O)ccc1-c1ccc2c(-c3nc(C4=CCNCC4)c[nH]3)n[nH]c2c1 , what is its reported AUC(0-t)?
Resp: 500 to 1000 ng·h/mL

Req: Param item = CCc1cc(O)ccc1-c1ccc2c(-c3nc(C4=CC5COCC(C4)N5)c[nH]3)n[nH]c2c1 (stereo not shown) ; retrieve measured AUC(0-t).
Resp: < 500 ng·h/mL

Req: Reported AUC(0-t), compound CCc1cc(O)ccc1-c1ccc2c(-c3nc(C4=C[C@H](COC)NC4)c[nH]3)n[nH]c2c1 : ____
Resp: 500 to 1000 ng·h/mL

Req: For the compound CCc1cc(O)ccc1-c1ccc2c(-c3nc(C4=CCNC4)c[nH]3)n[nH]c2c1 , what AUC(0-t) is on record?
Resp: < 500 ng·h/mL

###

# TARGET_DESC: TYK2 (Homo sapiens (Human))
# Sequence (P29597 whole entry): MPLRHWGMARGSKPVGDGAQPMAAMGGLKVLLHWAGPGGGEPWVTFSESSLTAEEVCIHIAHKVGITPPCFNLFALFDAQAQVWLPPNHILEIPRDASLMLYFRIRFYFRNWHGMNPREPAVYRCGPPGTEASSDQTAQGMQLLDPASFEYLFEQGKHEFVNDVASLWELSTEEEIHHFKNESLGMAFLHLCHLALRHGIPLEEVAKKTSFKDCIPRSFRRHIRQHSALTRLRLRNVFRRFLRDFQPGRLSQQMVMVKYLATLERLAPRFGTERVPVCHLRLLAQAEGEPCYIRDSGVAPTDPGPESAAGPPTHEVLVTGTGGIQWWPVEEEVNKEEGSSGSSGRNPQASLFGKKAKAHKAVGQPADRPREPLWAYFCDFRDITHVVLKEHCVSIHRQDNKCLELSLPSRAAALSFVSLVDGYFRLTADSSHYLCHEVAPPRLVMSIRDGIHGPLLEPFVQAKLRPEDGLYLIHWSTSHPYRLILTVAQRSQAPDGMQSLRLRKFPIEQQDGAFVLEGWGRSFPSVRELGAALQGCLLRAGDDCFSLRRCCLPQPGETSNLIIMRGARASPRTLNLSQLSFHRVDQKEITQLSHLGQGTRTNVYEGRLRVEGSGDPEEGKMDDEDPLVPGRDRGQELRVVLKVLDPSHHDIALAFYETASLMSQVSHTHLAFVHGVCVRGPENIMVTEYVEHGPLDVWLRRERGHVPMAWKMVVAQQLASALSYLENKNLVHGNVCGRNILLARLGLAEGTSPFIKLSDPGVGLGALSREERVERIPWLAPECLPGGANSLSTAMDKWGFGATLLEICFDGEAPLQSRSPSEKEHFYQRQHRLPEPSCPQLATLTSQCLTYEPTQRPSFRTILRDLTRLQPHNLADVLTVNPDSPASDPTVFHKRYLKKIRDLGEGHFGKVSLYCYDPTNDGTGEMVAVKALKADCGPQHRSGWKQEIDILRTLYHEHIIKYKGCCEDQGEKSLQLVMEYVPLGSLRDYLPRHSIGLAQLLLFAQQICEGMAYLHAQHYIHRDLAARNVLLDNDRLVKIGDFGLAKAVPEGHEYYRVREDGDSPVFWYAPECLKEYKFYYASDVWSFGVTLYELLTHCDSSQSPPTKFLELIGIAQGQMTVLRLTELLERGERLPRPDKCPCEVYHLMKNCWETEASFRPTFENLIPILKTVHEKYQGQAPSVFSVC
# RUN_DESCRIPTION: Biochemical JAK kinase assay (LanthaScreen), Tyk2
# SETUP_CONDITIONS: read-out: Tyk2 pKi (converted)
ENDPOINT_LABEL: Ki

Req: Fill in: Ki of CCc1cc(O)ccc1-c1ccc2c(-c3nc(C4=CCN(C[C@@H]5COCCN5C(=O)OC(C)(C)C)CC4)c[nH]3)n[nH]c2c1 [Example 383] is ___
Resp: 10 to 100 nM

Req: For the molecule CCc1cc(O)ccc1-c1ccc2c(-c3nc(C4=CCN(C5CCCN(C)C5)C4)c[nH]3)n[nH]c2c1F (stereo not shown) [Example 223] , what Ki is on record?
Resp: 1 to 10 nM

Req: Given the entry CCc1cc(O)ccc1-c1ccc2c(-c3nc(C4=CCN(C(=O)CN)C4)c[nH]3)n[nH]c2c1F [Example 173] , report its measured Ki.
Resp: 1 to 10 nM

Req: Please report the recorded Ki for CCc1cc(O)ccc1-c1ccc2c(-c3nc(C4=CC(C)NC4)c[nH]3)n[nH]c2c1 (stereo not shown) [Example 238] .
Resp: 10 to 100 nM

Req: Given the entry CCc1cc(O)ccc1-c1ccc2c(-c3nc(C4=CCN(C(C)C)C4)c[nH]3)n[nH]c2c1F [Example 32] , report its measured Ki.
Resp: 1 to 10 nM

Req: Return reported Ki; argument: CCc1cc(O)ccc1-c1ccc2c(-c3nc(C4=CCN(CCCO)CC4)c[nH]3)n[nH]c2c1 [Example 34]
Resp: 1 to 10 nM

Req: Param item = CCc1cc(O)ccc1-c1ccc2c(-c3nc(C4=CCN(C5COC5)CC4)c[nH]3)n[nH]c2c1 [Example 57] ; retrieve measured Ki.
Resp: 1 to 10 nM

###

Kindly state IC50 for each of the entries shown.
# Test system: IL-13 induced STAT6 phosphorylation in BEAS-2B human lung epithelial cells
# RUN_DESCRIPTION: Cellular JAKI potency assay (BEAS-2B)
# Type: cell-based
# SETUP_CONDITIONS: Homo sapiens, BEAS-2B, BEAS-2B cells, read-out: BEAS2B pIC50 (converted)

Req: Entry CCc1cc(O)ccc1-c1ccc2c(-c3nc(C4=C[C@H](CC(=O)N5CCCC5)NC4)c[nH]3)n[nH]c2c1F [Example 360] has what IC50?
Resp: 31.6 to 100 nM

Req: Which measured IC50 value corresponds to CCc1cc(O)ccc1-c1ccc2c(-c3nc(C4=CCN(CCNC(C)=O)C4)c[nH]3)n[nH]c2c1 [Example 114] ?
Resp: 3.16 to 10 nM

Req: Give its IC50 value. Item: CCc1cc(O)ccc1-c1ccc2c(-c3nc(C4=CC[C@H](C)N(C[C@@H](C)CO)C4)c[nH]3)n[nH]c2c1F [Example 262]
Resp: 10 to 31.6 nM

Req: Give the measured IC50 of CCc1cc(O)ccc1-c1ccc2c(-c3nc(C4=CCN(C(=O)CNC)C4)c[nH]3)n[nH]c2c1F [Example 349] .
Resp: 31.6 to 100 nM

Req: Would you kindly share the measured IC50 for CCc1cc(O)ccc1-c1ccc2c(-c3nc(C4=CCN(C[C@@H](C)CO)CC4)c[nH]3)n[nH]c2c1F [Example 39] ?
Resp: 10 to 31.6 nM

Req: Requested read-out: IC50. Entry: CCc1cc(O)ccc1-c1ccc2c(-c3nc(C4=C(C)CNCC4)c[nH]3)n[nH]c2c1 [Example 224]
Resp: 3.16 to 10 nM

Req: Would you mind telling me what IC50 value was observed for CCc1cc(O)ccc1-c1ccc2c(-c3nc(C4=CCN(CCSC)CC4)c[nH]3)n[nH]c2c1F [Example 81] ?
Resp: 31.6 to 100 nM

Req: Reported IC50 for CCc1cc(O)ccc1-c1ccc2c(-c3nc(C4=C[C@@H](C)NC4)c[nH]3)n[nH]c2c1F [Example 292] : what is it?
Resp: 3.16 to 10 nM

Req: What does the record list as IC50 for CCc1cc(O)ccc1-c1ccc2c(-c3nc(C4=CCCN(CCS(C)(=O)=O)C4)c[nH]3)n[nH]c2c1 [Example 87] ?
Resp: 10 to 31.6 nM

Req: What measured IC50 goes with CCc1cc(O)ccc1-c1ccc2c(-c3nc(C4=CCN(CCCNC(=O)C(C)C)CC4)c[nH]3)n[nH]c2c1 [Example 117] ?
Resp: 3.16 to 10 nM

Req: Need IC50, item CCc1cc(O)ccc1-c1ccc2c(-c3nc(C4=CCCN(C(=O)[C@@H](N)C(C)(C)O)C4)c[nH]3)n[nH]c2c1 [Example 165]
Resp: 10 to 31.6 nM

Req: Any idea what its IC50 is? The molecule is CCc1cc(O)ccc1-c1ccc2c(-c3nc(C4=CCN(CCO)C4)c[nH]3)n[nH]c2c1F [Example 53]
Resp: 3.16 to 10 nM

Req: State the recorded IC50 for this entry: CCc1cc(O)ccc1-c1ccc2c(-c3nc(C4=CCCNC4)c[nH]3)n[nH]c2c1F [Compound 6]
Resp: 3.16 to 10 nM

Req: Would you mind telling me what IC50 value was observed for CCc1cc(O)ccc1-c1ccc2c(-c3nc(C4=C[C@@H](CC(=O)OC)NC4)c[nH]3)n[nH]c2c1F [Example 254] ?
Resp: 10 to 31.6 nM

Req: // lookup IC50 for CCc1cc(O)ccc1-c1ccc2c(-c3nc(C4=CCC(C)(C)NC4)c[nH]3)n[nH]c2c1F [Example 306]
Resp: 10 to 31.6 nM

Req: For the molecule shown here, CCc1cc(O)ccc1-c1ccc2c(-c3nc(C4=C(C(=O)OC(C)C)CCNC4)c[nH]3)n[nH]c2c1F [Example 315] , give the reported IC50.
Resp: 10 to 31.6 nM

Req: # lookup: IC50 of CCc1cc(O)ccc1-c1ccc2c(-c3nc(C4=C[C@H](CO)N(CCO)C4)c[nH]3)n[nH]c2c1F [Example 263]
Resp: 10 to 31.6 nM

Req: Fill in the blank: the reported IC50 of CCc1cc(O)ccc1-c1ccc2c(-c3nc(C4=CCCN(CCSC)C4)c[nH]3)n[nH]c2c1 [Example 86] is ____.
Resp: 10 to 31.6 nM

Req: Name the recorded IC50 for CCc1cc(O)ccc1-c1ccc2c(-c3nc(C4=C[C@@H](C)N[C@@H](C)C4)c[nH]3)n[nH]c2c1 (racemic) [Example 366] .
Resp: 31.6 to 100 nM

Req: Find the recorded IC50 belonging to CCCN1CC=C(c2c[nH]c(-c3n[nH]c4c(F)c(-c5ccc(O)cc5CC)ccc34)n2)C1 [Example 288] and report it.
Resp: 3.16 to 10 nM

Req: Requested read-out: IC50. Entry: CCc1cc(O)ccc1-c1ccc2c(-c3nc(C4=CCN(C5CCC(O)CC5)CC4)c[nH]3)n[nH]c2c1F (centres unmarked) [Example 121]
Resp: 10 to 31.6 nM

Req: Request the reported IC50 associated with CCc1cc(O)ccc1-c1ccc2c(-c3nc(C4=CCCN(C5CCOCC5)C4)c[nH]3)n[nH]c2c1F [Example 69]
Resp: 10 to 31.6 nM

Req: Would you kindly share the measured IC50 for CCc1cc(O)ccc1-c1ccc2c(-c3nc(C4=CCN(CCN5CCNC5=O)CC4)c[nH]3)n[nH]c2c1F [Example 120] ?
Resp: 10 to 31.6 nM

Req: Endpoint output: IC50 of CCc1cc(O)ccc1-c1ccc2c(-c3nc(C4=C[C@H](CO)NC4)c[nH]3)n[nH]c2c1F [Compound 8] . Value?
Resp: 10 to 31.6 nM

Req: If you can, please state the reported IC50 value of CCc1cc(O)ccc1-c1ccc2c(-c3nc(C4=C(C)CNC4)c[nH]3)n[nH]c2c1F [Example 293] .
Resp: 3.16 to 10 nM

Req: # get_value(readout='IC50', item= CCc1cc(O)ccc1-c1ccc2c(-c3nc(C4=CCN([C@H]5CC[C@](C)(O)CC5)C4)c[nH]3)n[nH]c2c1F [Example 330] )
Resp: 10 to 31.6 nM

Req: Suppose we examine the molecule CCc1cc(O)ccc1-c1ccc2c(-c3nc(C4=CCCNC4)c[nH]3)n[nH]c2c1 [Compound 4] ; what IC50 value has been reported?
Resp: 3.16 to 10 nM

Req: Field request: IC50 | item: CCc1cc(O)ccc1-c1ccc2c(-c3nc(C4=CCN(C(=O)[C@@H](N)Cc5ccccc5)CC4)c[nH]3)n[nH]c2c1 [Example 176]
Resp: 31.6 to 100 nM

Req: Given CCc1cc(O)ccc1-c1ccc2c(-c3nc(C4=C[C@H](CO)N(C5COC5)C4)c[nH]3)n[nH]c2c1F [Example 273] , state its recorded IC50.
Resp: 10 to 31.6 nM
